Biological target: IDO1 (Homo sapiens (Human), UniProt P14902)
Experiment: IDO1 Enzyme Assay
Format: biochemical
Conditions: HIS-tagged recombinant IDO1, fluorescence readout
Method: Compounds to be tested were serially diluted in ten 3-fold steps in DMSO starting from 10 mM DMSO stocks. […] HIS-tagged IDO1 protein was recombinantly expressed in Escherichia coli using ZYP5052 autoinduction media supplemented with 500 μM delta aminolevulinic acid for 48 h at 16° C. […] The resulting fluoresence was measured in an Envision plate reader (Perkin Elmer) with a 400/25 nm excitation filter and an 510/20 nm emission filter. […]
Sequence (P14902 whole entry, species assumed): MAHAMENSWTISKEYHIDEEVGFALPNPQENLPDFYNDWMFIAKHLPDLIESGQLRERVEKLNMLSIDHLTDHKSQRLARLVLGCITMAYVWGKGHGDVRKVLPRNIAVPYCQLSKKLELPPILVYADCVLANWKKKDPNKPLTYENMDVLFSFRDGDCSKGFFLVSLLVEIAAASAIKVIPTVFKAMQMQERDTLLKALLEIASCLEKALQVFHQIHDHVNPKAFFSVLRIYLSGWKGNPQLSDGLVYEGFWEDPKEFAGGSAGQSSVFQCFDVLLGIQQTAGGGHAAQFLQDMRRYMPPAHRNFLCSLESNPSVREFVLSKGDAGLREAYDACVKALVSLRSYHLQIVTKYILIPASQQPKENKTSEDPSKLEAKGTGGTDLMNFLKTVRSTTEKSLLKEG
MEASUREMENT_KIND: pIC50
// returns pIC50 (minus log10 of molar concentration), number only

Worked examples, 4 compounds total:
| COMPOUND | pIC50 |
| --- | --- |
| N=S(N)(=O)CCCNc1nonc1/C(=N\O)NC1Cc2ccc(F)cc21 (stereo in doubt) [Example 65] | 7.32 |
| CS(=N)(=O)CCCCOc1nonc1/C(=N/O)N[C@H]1Cc2ccc(F)cc21 (single isomer, unassigned) [Example 33] | 6.74 |
| CON=[S@](C)(=O)CCNc1nonc1/C(=N/O)NC1Cc2ccc(F)cc21 (single isomer, unassigned) [Example 90] | 7.35 |
| N=S1(=O)CC(Nc2nonc2/C(=N/O)N[C@H]2Cc3ccc(F)cc32)C1 (single isomer, unassigned) [Example 3] | 6.92 |

pIC50 reading for CS(=N)(=O)NCC(O)CNc1nonc1/C(=N\O)N[C@H]1Cc2ccc(F)cc21 (single isomer, unassigned) [Example 55] : 7.03

Form field pIC50, entry CS(=N)(=O)CCCNc1nonc1/C(=N/O)N[C@H]1Cc2ccc(F)cc21 (single isomer, unassigned) [Example 25] : 7.51

----------
molecular target: IDO1 (Homo sapiens (Human)); test: IDO1 Cellular Assay in Hela Cells Stimulated with IFNγ; type: cell-based; conditions: about 48 hours, read-out: IDO1 HELA Cell Assay, IC50
Sequence (P14902 whole entry): as the sequence (P14902 whole entry, species assumed) above
Quick reference for pIC50 among some molecules
In plain terms, pIC50 is the concentration in mol/L turned into minus its base-10 logarithm.

Observe how each entry below is paired with its result.
| MOLECULE | STUDY_TARGET | RECORDED_VALUE |
| --- | --- | --- |
| CS(=N)(=O)N1CCC(Nc2nonc2/C(=N/O)N[C@H]2Cc3ccc(F)cc32)CC1 (single isomer, unassigned) [Example 18] | IDO1 (Homo sapiens (Human)) | 7.16 |
| CC(O)CS(=N)(=O)CCNc1nonc1/C(=N\O)N[C@@H]1Cc2ccc(F)cc21 (single isomer, unassigned) [Example 86] | IDO1 (Homo sapiens (Human)) | 7.39 |
| CN(CCNc1nonc1/C(=N\O)N[C@H]1Cc2ccc(F)cc21)S(C)(=N)=O (some centres unmarked) | IDO1 (Homo sapiens (Human)) | 6.99 |
| C[S@@](=N)(=O)CCNc1nonc1/C(=N/O)N[C@H]1Cc2ccc(F)cc21 | IDO1 (Homo sapiens (Human)) | 7.22 |
| CS(=N)(=O)N1CCO[C@@H](CNc2nonc2/C(=N\O)N[C@H]2Cc3ccc(F)cc32)C1 (single isomer, unassigned) [Example 60] | IDO1 (Homo sapiens (Human)) | 6.48 |

Documented pIC50 of CC(O)CS(=N)(=O)CCNc1nonc1/C(=N\O)N[C@@H]1Cc2ccc(F)cc21 (single isomer, unassigned) [Example 87] : 7.28

pIC50 in this record for C[S@@](=N)(=O)CCCOc1nonc1/C(=N/O)NC1Cc2ccc(F)cc21 (single isomer, unassigned) [Example 31] : 6.45

// pIC50 lookup, molecule = CS(=N)(=O)N1CC(CNc2nonc2/C(=N\O)N[C@@H]2Cc3ccc(F)cc32)C1 (single isomer, unassigned) [Example 70] , result: 7.38

For CC(O)CS(=N)(=O)CCNc1nonc1/C(=N\O)N[C@@H]1Cc2ccc(F)cc21 (single isomer, unassigned) [Example 85] the molecule record lists pIC50 as 7.30

This collection of values is drawn from patent US10927086B2.
